# Tested on: MS2 coat protein
# assay_notes: apparent KD of MS2 coat protein; designed switch direction (-1 OFF switch, 1 ON switch): -1; higher = weaker reporter binding
# test_parameters: input ligand: none

# seq_string, experimental_system, apparent KD of MS2 coat protein / nM
records = [
    ("AGCCCUGCAGGAUAUGCCCGGGAUAACAUGAGGAUCACCCAUGUGACCGAUUGUUAUUCUGCAGAAGGGCAUGGGA [JL-EX5-4.17 ViennaUCT mod] (Eterna round: R97, puzzle: Exclusion 5)", "MS2 coat protein", 235),
    ("AAGAACGGUAAGGAUAUCCAUGUGAAAUAAAGAGGAGAAGGUACCACAUGAGGAUCACCCAUGUGGCUCUCAAA [EX6 B.30] (Eterna round: R97, puzzle: Exclusion 6)", "MS2 coat protein", 11.5),
    ("GCUGGUGUGCAGGAUAUUUAAUUGCAAAUAAAUAAAGAAGGGCAUACAUGAGGAUCACCCAUGUCGUCGUUGCG [Eternabot (L1) Solution 98] (Eterna round: R97, puzzle: Exclusion 6)", "MS2 coat protein", 32.7),
    ("UUAGCGUAAGUAAGGAUAUGCUGGUCUAAUGAUCAGCAGAAGGUACAUGAGGAUCACCCAUGUGGAUUCGUUAU [Mod of JL 10 - Jieux - Brourd's mod of Exclusion 4] (Eterna round: R97, puzzle: Brourd's mod of Exclusion 4)", "MS2 coat protein", 19.2),
    ("AAUUAGUGAGGAUAUUCGAGCAGUGGCAGUAGCCAGUGCAUGAAGAAGGCACAUGAGGAUCACCCAUGUUAUAA [EX4 #60] (Eterna round: R97, puzzle: Exclusion 4)", "MS2 coat protein", 28.4),
]

* * *

# Test system: MS2 coat protein
# assay_notes: apparent KD of MS2 coat protein; designed switch direction (-1 OFF switch, 1 ON switch): 1; higher = weaker reporter binding
# test_parameters: input ligand: FMN 200 uM
Overview of recorded apparent KD of MS2 coat protein for various sequences

# seq_string, uom, apparent KD of MS2 coat protein
measured = [
    ("UGCUAGUGGGUAGGAUAUCUAGGAUAUGGGAAAGACUAAGUCUGUAGGUCACCUAACCCAGAAGGAGAGAAGGACCAUUCAGCU [pwkr ssNG2 2FMN + F9.26] (Eterna round: R96, puzzle: Same State NG 2)", "nM", 165),
    ("GGAUGAUGGACAGGAUAUUGAUUGUAAUGGUGUCAAGAAGGGUCUUUGAUUUAAACGACCAGUUACAUGAGGAUCACCCAUGUU [JR_SSNG1_Sub031] (Eterna round: R96, puzzle: Same State NG 1)", "nM", 133),
    ("ACAUGAGACCAAGGAUAUUUUGUACCUACAUGUGACAUGAGGAUCACCCAUGUGGUAAGUAUGAGAAAGAAGGUGGAGAUAUGU [Equivalence 22 - Jieux - Same State NG 2] (Eterna round: R96, puzzle: Same State NG 2)", "nM", 22.8),
    ("AAACAUGAGCGAGGAUAUGCGGAGGAUCACCCUGUAGAAGGCGCAUGUAAAACAACAUGAGGAUCACCCAUGUCAUGUACAUAA (Eterna round: R96, puzzle: Same State NG 1)", "nM", 77.5),
]

* * *

Overview of recorded apparent KD of MS2 coat protein for various sequences
# System: MS2 coat protein
# assay_notes: apparent KD of MS2 coat protein; designed switch direction (-1 OFF switch, 1 ON switch): -1; higher = weaker reporter binding
# test_parameters: input ligand: FMN 200 uM

# seq_string, apparent KD of MS2 coat protein (nM)
rows = [
    ("GUCGCCAGUGUCAGGAUAUGAUGGCCUCGACGCCGUUAGAAGGGACAUGAGGAUCACCCAUGUAACAAGCGACG [Eternabot (Original) Solution 42] (Eterna round: R97, puzzle: Brourd's mod of Exclusion 4)", 31.3),
    ("GUGUACAGAGGAUAUAUAUGAGCAUGGAAACAUGCAAGAUCACAUGAGGAUCACCCAUGUAGAAGGCUGUACAC [Ex2: 736] (Eterna round: R96, puzzle: Exclusion 2)", 861),
    ("ACCUAUGAGGAGGAUAUACGGUGCGAAAGGAUGGUAGAAGGCUUCACAUGAGGAUCACCCAUGUCUAUAAGCGA [EX6 #87] (Eterna round: R97, puzzle: Exclusion 6)", 27.8),
    ("GUGUGACAUGAGGAUCACCCAUGUGAGGAUAUUUAUGUUUGGUUGUUUAGUUGGGCGUGGAGAAGGCGCGUGCG [19% As] (Eterna round: R97, puzzle: Exclusion 1)", 65.6),
    ("AAACAGCAAGGAUAUACGGGCUGUGCUUUUCAUUUCUUACAACAUGAGGAUCACCCAUGUAGAAGGUGCAACAA [Ex2 #5] (Eterna round: R97, puzzle: Exclusion 2)", 80.4),
]
